Record form. Attribute: koff. Fill in for each entry.
# assay target: T1, Human BCMA (human, UniProt Q02223 1-54, limits assumed)
# T1 construct: also called huBCMA; B-cell maturation antigen
# T1 sequence (looked up): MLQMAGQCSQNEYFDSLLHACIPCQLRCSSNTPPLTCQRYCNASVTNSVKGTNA
# protocol details: SPR, IgG immobilised, human BCMA analyte
# Protocol: All experiments were performed on a Bio-Rad Proteon XPR36 surface Plasmon resonance biosensor (Bio-Rad, Hercules, Calif.). […] The analysis temperature for the immobilization was 25° C. and the running buffer was HBS-T+(10 mM HEPES, 150 mM NaCl, 0.05% Tween-20, pH 7.4). […] The analysis temperature for the BCMA binding analysis was 37° C. or 25° C. in a running buffer of HBS-T+, supplemented with 1 mg/mL BSA. […] Immediately after the 50 nM BCMA injection, dissociation was monitored for 2 hours. […]
# output: number + unit

Task: What value of koff has been reported for the following binder? A02_Rd4_6nM_C01 (antibody, V domains shown, IgG) VH: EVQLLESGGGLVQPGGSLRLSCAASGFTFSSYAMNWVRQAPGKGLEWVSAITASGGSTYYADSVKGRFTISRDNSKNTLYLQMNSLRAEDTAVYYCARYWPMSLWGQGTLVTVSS VL: EIVLTQSPGTLSLSPGERATLSCRASQSVSAYYLAWYQQKPGQAPRLLMYDASIRATGIPDRFSGSGSGTDFTLTISRLEPEDFAVYYCQQYERWPLTFGQGTKVEIK
Result: 9.2e-05 s⁻¹

Task: Also need COMBO_Rd4_0.6nM_C11 (antibody, V domains shown, IgG) VH: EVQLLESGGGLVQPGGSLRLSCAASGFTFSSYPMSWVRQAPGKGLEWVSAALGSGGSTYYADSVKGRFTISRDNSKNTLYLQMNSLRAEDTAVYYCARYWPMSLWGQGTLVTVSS VL: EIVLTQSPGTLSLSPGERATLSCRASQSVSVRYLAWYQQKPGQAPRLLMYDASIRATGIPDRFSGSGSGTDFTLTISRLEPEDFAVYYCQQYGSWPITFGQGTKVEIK , thanks.
Result: 0.00106 s⁻¹

Task: Also need A02_Rd4_0.6nM_C13 (antibody, V domains shown, IgG) VH: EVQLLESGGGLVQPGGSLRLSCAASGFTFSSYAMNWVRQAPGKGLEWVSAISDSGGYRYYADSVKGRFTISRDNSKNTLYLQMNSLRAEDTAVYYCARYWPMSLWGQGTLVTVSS VL: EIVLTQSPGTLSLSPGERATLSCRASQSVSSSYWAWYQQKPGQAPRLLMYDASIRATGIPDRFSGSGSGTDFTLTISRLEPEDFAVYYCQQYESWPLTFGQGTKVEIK , thanks.
Result: 0.000566 s⁻¹

Task: Also need A02_Rd4_0.6nM_C18 (antibody, V domains shown, IgG) VH: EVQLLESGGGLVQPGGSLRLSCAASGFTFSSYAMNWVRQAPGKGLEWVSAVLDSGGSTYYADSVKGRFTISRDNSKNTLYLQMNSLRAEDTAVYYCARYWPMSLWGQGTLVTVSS VL: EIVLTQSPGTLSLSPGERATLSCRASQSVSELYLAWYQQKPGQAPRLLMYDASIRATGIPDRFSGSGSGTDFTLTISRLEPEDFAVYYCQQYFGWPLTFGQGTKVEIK , thanks.
Result: 0.000229 s⁻¹

Task: Also need C01_Rd4_6nM_C20 (antibody, V domains shown, IgG) VH: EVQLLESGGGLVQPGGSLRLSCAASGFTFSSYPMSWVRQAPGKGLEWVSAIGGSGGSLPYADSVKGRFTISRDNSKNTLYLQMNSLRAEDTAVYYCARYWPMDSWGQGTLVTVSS VL: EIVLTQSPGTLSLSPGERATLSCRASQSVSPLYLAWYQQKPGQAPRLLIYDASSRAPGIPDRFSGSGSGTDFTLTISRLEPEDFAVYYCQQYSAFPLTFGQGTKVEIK , thanks.
Result: 0.00276 s⁻¹

Task: Also need C01_Rd4_0.6nM_C16 (antibody, V domains shown, IgG) VH: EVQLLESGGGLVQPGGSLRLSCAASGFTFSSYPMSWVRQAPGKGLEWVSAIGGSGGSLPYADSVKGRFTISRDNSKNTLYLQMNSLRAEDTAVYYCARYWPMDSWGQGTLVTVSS VL: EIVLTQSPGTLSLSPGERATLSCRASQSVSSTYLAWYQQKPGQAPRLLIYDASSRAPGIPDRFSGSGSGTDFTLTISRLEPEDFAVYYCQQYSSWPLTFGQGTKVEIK , thanks.
Result: 0.0063 s⁻¹

Task: Also need COMBO_Rd4_0.6nM_C04 (antibody, V domains shown, IgG) VH: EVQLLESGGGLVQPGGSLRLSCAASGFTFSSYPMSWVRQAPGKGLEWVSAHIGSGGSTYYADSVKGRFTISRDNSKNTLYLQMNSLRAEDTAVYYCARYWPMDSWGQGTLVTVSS VL: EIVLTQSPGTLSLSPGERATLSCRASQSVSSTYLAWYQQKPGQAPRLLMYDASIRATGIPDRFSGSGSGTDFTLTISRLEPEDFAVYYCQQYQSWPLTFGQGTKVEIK , thanks.
Result: 0.000158 s⁻¹

Task: Also need COMBO_Rd4_6nM_C09 (antibody, V domains shown, IgG) VH: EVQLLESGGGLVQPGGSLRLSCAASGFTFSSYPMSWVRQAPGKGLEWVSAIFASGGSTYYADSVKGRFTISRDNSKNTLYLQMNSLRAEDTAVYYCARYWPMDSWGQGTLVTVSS VL: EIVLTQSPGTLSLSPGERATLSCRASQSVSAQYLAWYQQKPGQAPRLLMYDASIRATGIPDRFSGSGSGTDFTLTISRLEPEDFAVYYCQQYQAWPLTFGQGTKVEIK , thanks.
Result: 0.000143 s⁻¹

Task: Also need A02_Rd4_6nM_C10 (antibody, V domains shown, IgG) VH: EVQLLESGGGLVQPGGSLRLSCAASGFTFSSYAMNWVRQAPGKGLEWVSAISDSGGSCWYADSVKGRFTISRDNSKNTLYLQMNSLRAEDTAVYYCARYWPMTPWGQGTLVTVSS VL: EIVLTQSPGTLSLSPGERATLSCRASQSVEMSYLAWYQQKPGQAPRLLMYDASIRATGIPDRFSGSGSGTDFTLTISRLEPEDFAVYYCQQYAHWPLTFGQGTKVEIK , thanks.
Result: 0.000315 s⁻¹

Task: Also need COMBO_Rd4_0.6nM_C21 (antibody, V domains shown, IgG) VH: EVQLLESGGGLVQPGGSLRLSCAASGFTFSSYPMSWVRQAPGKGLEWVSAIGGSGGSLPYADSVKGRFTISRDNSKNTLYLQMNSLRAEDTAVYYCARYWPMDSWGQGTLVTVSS VL: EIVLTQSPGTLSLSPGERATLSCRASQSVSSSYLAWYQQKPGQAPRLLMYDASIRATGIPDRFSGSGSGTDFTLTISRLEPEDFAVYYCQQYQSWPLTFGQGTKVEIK , thanks.
Result: 0.000115 s⁻¹
